Values compiled from ChEMBL document CHEMBL5344432.

Assay: Metabolic stability in human liver microsomes assessed as parent compound remaining preincubated for 15 mins followed by NADPH addition and measured after 1 hr by LC-MS/MS analysis
Format: ADME, Microsome
Settings: time 75 min, read-out: Stability
Kindly apply the following: criterion met if remaining at 1 h is less than 80%, criterion not met in every other case.

chemical-string	label
Fc1ccc(C2(NCc3cc(CC4CCNCC4)ccc3F)CCCC2)cc1	criterion met
CN1CC2(CC(Cc3cccc(CNC4(c5ccc(F)c(F)c5)CCCC4)c3)C2)C1	criterion not met
CN1CCC(Cc2cccc(CNC3(c4ccc(F)c(F)c4)CCCC3)c2)CC1	criterion met

====

List of half-life values.
Assay: Metabolic stability in mouse liver microsomes assessed as half life preincubated for 15 mins followed by NADPH addition and measured after 1 to 2 hrs by LC-MS/MS analysis
Assay type: ADME, Microsome
Settings: liver microsomes, time 75-135 min

molecule	half-life
CN1CCC(Cc2cccc(CNC3(c4ccc(F)cc4)CCCC3)c2)CC1(C)C (racemic)	> 1 h
CN1CCC(Cc2cccc(CNC3(c4ccc(F)c(Cl)c4)CCCC3)c2)CC1	> 1 h
Fc1ccc(C2(NCc3cc(CC4CCNCC4)ccc3F)CCCC2)cc1	> 2 h
CN1CCC(Cc2cccc(CNC3(c4ccc(F)c(O)c4)CCCC3)c2)CC1	> 2 h
CN1CCC(Cc2cccc(CNC3(c4ccc(F)cc4F)CCCC3)c2)CC1	< 0.5 h
CN1CCC(Cc2cccc(CNC3(c4ccc(F)cc4)CCCC3)c2)C(F)(F)C1 (racemic)	< 0.0833 h
CN1CC(Cc2cccc(CNC3(c4ccc(F)cc4)CCCC3)c2)C1	> 1 h
Fc1ccc(C2(NCc3ccc(F)c(CC4CCNCC4)c3)CCCC2)cc1	> 2 h
Fc1ccc(C2(NCc3cccc(CC4CCNCC4)c3)CCCC2)cc1	> 2 h

====

Test: Metabolic stability in mouse liver microsomes assessed as half life preincubated for 15 mins followed by NADPH addition and measured after 1 to 2 hrs by LC-MS/MS analysis
Format: ADME, Microsome
Conditions: microsomes, time 75-135 min
Criterion: t1/2 meeting or surpassing 1 h. Met: 1. Not met: -1.

chemical-string	label
CN1CCC(Cc2cc(CNC3(c4ccc(F)cc4)CCCC3)ccc2O)CC1	1
CN1CCC(Cc2cc(CNC3(c4ccc(F)c(F)c4)CCCC3)ccc2F)CC1	-1
CN1CCC(Cc2ccc(F)c(CNC3(c4ccc(F)cc4)CCCC3)c2)CC1	1
COc1cc(F)ccc1C1(NCc2ccc(F)c(CC3CCN(C)CC3)c2)CCCC1	1
COc1cc(F)ccc1C1(NCc2cccc(CC3CCN(C)CC3)c2)CCCC1	1
COc1cc(C2(NCc3cccc(CC4CCN(C)CC4)c3)CCCC2)ccc1F	1
CN1CCC(Cc2cc(CNC3(c4ccc(F)cc4)CCCC3)c(F)cc2F)CC1	1
CN1CCC(Cc2cccc(CNC3(c4ccc(F)c(F)c4)CCCC3)c2)CC1	1
CN1CCC(Cc2ccc(O)c(CNC3(c4ccc(F)cc4)CCCC3)c2)CC1	1
CN1CCC(Cc2cccc(CNC3(c4ccc(F)cc4O)CCCC3)c2)CC1	-1

====

The following compounds are listed with their measured remaining at 2 h values.
Experiment: Metabolic stability in human liver microsomes assessed as parent compound remaining preincubated for 15 mins followed by NADPH addition and measured after 2 hrs by LC-MS/MS analysis
Assay type: ADME, Microsome
Details: time 135 min, read-out: Stability
quantity-kind: remaining at 2 h (%)

chemical-string	quantity-kind	unit-abbreviation	numeric-readout
CN1CCC(Cc2cc(CNC3(c4ccc(F)c(F)c4)CCCC3)ccc2F)CC1	remaining at 2 h	%	56
Fc1ccc(C2(NCc3cccc(CC4CCNCC4)c3)CCCC2)cc1	remaining at 2 h	%	62
CN1CCC(Cc2cc(CNC3(c4ccc(F)cc4)CCCC3)ccc2F)CC1	remaining at 2 h	%	71
Fc1ccc(C2(NCc3cc(CC4CCNCC4)ccc3F)CCCC2)cc1	remaining at 2 h	%	54
CN1CCC(Cc2cccc(CNC3(c4ccc(F)c(O)c4)CCCC3)c2)CC1	remaining at 2 h	%	71
CN1CCC(Cc2cc(CNC3(c4ccc(F)cc4)CCCC3)c(F)cc2F)CC1	remaining at 2 h	%	52
CN1CCC(Cc2ccc(F)c(CNC3(c4ccc(F)cc4)CCCC3)c2)CC1	remaining at 2 h	%	53
COc1cc(F)ccc1C1(NCc2cccc(CC3CCN(C)CC3)c2)CCCC1	remaining at 2 h	%	50
COc1cc(F)ccc1C1(NCc2ccc(F)c(CC3CCN(C)CC3)c2)CCCC1	remaining at 2 h	%	58
CN1CCC(Cc2ccc(O)c(CNC3(c4ccc(F)cc4)CCCC3)c2)CC1	remaining at 2 h	%	54
CN1CC2(CC(Cc3cccc(CNC4(c5ccc(F)c(F)c5)CCCC4)c3)C2)C1	remaining at 2 h	%	65
CN1CCC(Cc2cccc(CNC3(c4ccc(F)cc4)CCCC3)c2)CC1	remaining at 2 h	%	50
CN1CC2(CC(Cc3cccc(CNC4(c5ccc(F)cc5)CCCC4)c3)C2)C1	remaining at 2 h	%	66
CN1CCC(Cc2cccc(CNC3(c4ccc(F)c(F)c4)CCCC3)c2)CC1	remaining at 2 h	%	53
Fc1ccc(C2(NCc3ccc(F)c(CC4CCNCC4)c3)CCCC2)cc1	remaining at 2 h	%	68
COc1cc(C2(NCc3cccc(CC4CCN(C)CC4)c3)CCCC2)ccc1F	remaining at 2 h	%	55
CN1CCC(Cc2cc(CNC3(c4ccc(F)cc4)CCCC3)ccc2O)CC1	remaining at 2 h	%	63

====

Assay: Metabolic stability in mouse liver microsomes assessed as parent compound remaining preincubated for 15 mins followed by NADPH addition and measured after 1 hr by LC-MS/MS analysis
Type: ADME, Microsome
Settings: time 75 min, read-out: Stability
Sorting guide: entries reporting remaining at 1 h beneath 70% go in the t pile, the rest go in the f pile.

chemical-string	label
CN1CCC(Cc2cc(CNC3(c4ccc(F)cc4)CCCC3)ccc2Cl)CC1	t
Fc1ccc(C2(NCc3cc(CC4CCNCC4)ccc3F)CCCC2)cc1	f
CN1CCC(Cc2cc(CNC3(c4ccc(F)cc4)CCCC3)ccc2F)CC1	t
Fc1ccc(C2(NCc3cccc(CC4CCNCC4)c3)CCCC2)cc1	f

====

Each entry below carries its recorded remaining at 1 h.
Test: Metabolic stability in human liver microsomes assessed as parent compound remaining preincubated for 15 mins followed by NADPH addition and measured after 1 hr by LC-MS/MS analysis
Format: ADME, Microsome
Conditions: time 75 min, read-out: Stability
quantity-kind: remaining at 1 h (%)

chemical-string	quantity-kind	numeric-readout
COc1cc(F)ccc1C1(NCc2cccc(CC3CCN(C)CC3)c2)CCCC1	remaining at 1 h	70
CN1CCC(Cc2ccc(F)c(CNC3(c4ccc(F)cc4)CCCC3)c2)CC1	remaining at 1 h	75
CN1CCC(Cc2cc(CNC3(c4ccc(F)cc4)CCCC3)ccc2F)CC1	remaining at 1 h	84
CN1CCC(Cc2cc(CNC3(c4ccc(F)c(F)c4)CCCC3)ccc2F)CC1	remaining at 1 h	77
CN1CCC(Cc2cccc(CNC3(c4ccc(F)c(O)c4)CCCC3)c2)CC1	remaining at 1 h	84
CN1CCC(Cc2cc(CNC3(c4ccc(F)cc4)CCCC3)ccc2O)CC1	remaining at 1 h	83

====

Assay: Metabolic stability in human liver microsomes assessed as parent compound remaining preincubated for 15 mins followed by NADPH addition and measured after 1 hr by LC-MS/MS analysis
Type: ADME, Microsome
Settings: time 75 min, read-out: Stability
# reported remaining at 1 h; entries follow
quantity-kind: remaining at 1 h (%)

chemical-string	unit-abbreviation	numeric-readout
COc1cc(C2(NCc3cccc(CC4CCN(C)CC4)c3)CCCC2)ccc1F	%	80
Fc1ccc(C2(NCc3cccc(CC4CCNCC4)c3)CCCC2)cc1	%	80
Fc1ccc(C2(NCc3ccc(F)c(CC4CCNCC4)c3)CCCC2)cc1	%	81
CN1CC2(CC(Cc3cccc(CNC4(c5ccc(F)cc5)CCCC4)c3)C2)C1	%	82
